// HCR (Hypoxia Cytotoxicity Ratio) lookup, one value per entry
system: H460; test: Cytotoxicity under normoxia and hypoxia (anaerobic chamber, sulphorhodamine B), H460; format: cell-based, human
quantity: HCR (Hypoxia Cytotoxicity Ratio)

>>> experimental_result("COc1ccc2c3c(c4cc(OC)c(OC)cc4c2c1)C[C@H]1CCC[N+]1(Cc1c([N+](=O)[O-])ncn1C)C3.[Br-] (stereo partly shown) [Compound 5a]")
26
>>> experimental_result("COc1cc2c3c(c4cc(OC)c(OC)cc4c2cc1OC)C[N+]1(Cc2c([N+](=O)[O-])ncn2C)CCC[C@@H]1C3.[Br-] (stereo partly shown) [Compound 5c]")
7.8
>>> experimental_result("COc1cc2c3c(c4cc(OC)c(OC)cc4c2cc1OC)C[N+]1(Cc2c([N+](=O)[O-])ncn2C)CCC[C@H]1C3.[Br-] (stereo partly shown) [Compound 5b]")
24
>>> experimental_result("COc1ccc2c3c(c4cc(OC)c(OC)cc4c2c1)C[C@H]1CCCN1C3 [(R)-Antofine, (R)-antofine]")
0.6

----------
system: HEK293; assay: Cytotoxicity (MTT) under normoxia, HEK293; format: cell-based; details: Homo sapiens, HEK293; normoxia; read-out: IC50 HEK293
quantity: IC50 (nM)

>>> experimental_result("COc1ccc2c3c(c4cc(OC)c(OC)cc4c2c1)C[C@H]1CCCN1C3 [(R)-Antofine, (R)-antofine]")
30

----------
assay: Plasma protein binding (PPB); type: in vitro ADME; conditions: mean ± SE, read-out: PPB (% of Bound Compound) (converted)
quantity: fraction unbound

>>> experimental_result("COc1cc2c3c(c4cc(OC)c(OC)cc4c2cc1OC)C[N+]1(Cc2c([N+](=O)[O-])ncn2C)CCC[C@H]1C3.[Br-] (stereo partly shown) [Compound 5b]")
0.411
>>> experimental_result("COc1ccc2c3c(c4cc(OC)c(OC)cc4c2c1)C[C@H]1CCCN1C3 [(R)-Antofine, (R)-antofine]")
0.019
>>> experimental_result("COc1cc2c3c(c4cc(OC)c(OC)cc4c2cc1OC)CN1CCC[C@H]1C3 [(S)-Tylophorine]")
0.061
>>> experimental_result("COc1ccc2c3c(c4cc(OC)c(OC)cc4c2c1)C[C@H]1CCC[N+]1(Cc1c([N+](=O)[O-])ncn1C)C3.[Br-] (stereo partly shown) [Compound 5a]")
0.13

----------
Tested on: MRC5
Test: Cytotoxicity (MTT) under normoxia, MRC5
Format: cell-based
Conditions: Homo sapiens, MRC5; normoxia; read-out: IC50 MRC5
Method: The cytotoxicity of the compounds 5a–c and their parent alkaloids was evaluated by the 3-[4,5-dimethylthiazole-2-yl]-2,5-diphenyltetrazolium bromide (MTT) assay against 5 cancerous and 2 non-cancerous cell lines (Table 4). […]
pIC50: −log10 of the molar value.
quantity: pIC50

>>> experimental_result("COc1ccc2c3c(c4cc(OC)c(OC)cc4c2c1)C[C@H]1CCCN1C3 [(R)-Antofine, (R)-antofine]")
8.22

----------
tested on: H460; test: Cytotoxicity under normoxia and hypoxia (anaerobic chamber, sulphorhodamine B), H460; assay type: cell-based, human; settings: H460, hypoxia, 4 h exposure, 5 days growth; read-out: IC50 (Hypoxia)
quantity: IC50 (nM)

>>> experimental_result("CS(=O)(=O)OCCN(CCBr)c1c(C(=O)NCCO)cc([N+](=O)[O-])cc1[N+](=O)[O-] [PR-104A]")
533
